pEC50 by entry:
# Test system: FLU A (PR/8/34)
# assay.explanation: Flu A Neuraminidase Antiviral Assay
# Format: cell-based
// pEC50 is dimensionless: -log10 of concentration (M)

Sample records with pEC50:
molecule	pEC50
COc1ccccc1C1CCCC2N(C)C(=O)c3c(O)c(=O)ccn3N12 (single isomer, unassigned) [Compound 19B]	6.46
CCN1C(=O)c2c(O)c(=O)ccn2N2C1CCCC2(C)c1cccc(C)n1 (single isomer, unassigned) [Compound 53B]	8.08
CN1C(=O)c2c(O)c(=O)ccn2N2C1CCCC2(C)c1ccccc1F (single isomer, unassigned) [Compound 24A]	8.68

Proceeding to the next molecule to report its pEC50.
query: Recall the recorded pEC50 for Cc1ccccc1C1C(CC(F)(C(F)(F)F)C(F)(F)F)CCC2N(C)C(=O)c3c(O)c(=O)ccn3N12 (single isomer, unassigned) [Compound 81A] with FLU A (PR/8/34) and state it.
result: 7.72
